- Test system: human Lck enzyme (Homo sapiens, UniProt P06239)
- Construct: purchased Carna Biosciences, Inc. 08-170
- Sequence (P06239 whole entry): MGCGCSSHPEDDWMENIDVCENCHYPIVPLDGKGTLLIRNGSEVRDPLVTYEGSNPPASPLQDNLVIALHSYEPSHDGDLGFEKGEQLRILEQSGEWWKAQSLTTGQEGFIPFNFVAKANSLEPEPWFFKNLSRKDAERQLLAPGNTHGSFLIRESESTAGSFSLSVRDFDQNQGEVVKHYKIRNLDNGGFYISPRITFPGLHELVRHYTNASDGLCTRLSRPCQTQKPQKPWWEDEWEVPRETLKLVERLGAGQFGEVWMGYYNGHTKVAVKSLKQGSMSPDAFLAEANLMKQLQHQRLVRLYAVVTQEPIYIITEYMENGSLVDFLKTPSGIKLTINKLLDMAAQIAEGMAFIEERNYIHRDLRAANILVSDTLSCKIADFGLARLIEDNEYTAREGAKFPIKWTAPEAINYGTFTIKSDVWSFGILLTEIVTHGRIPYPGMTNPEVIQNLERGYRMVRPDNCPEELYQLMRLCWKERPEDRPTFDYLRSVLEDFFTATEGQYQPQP
- Protocol text: Lck enzyme inhibitory activity (time-resolved fluorometry, biotinylated peptide phosphorylation)
- Format: biochemical
- Assay context: biotinylated peptide phosphorylation, read-out: LCK_IC50
- Description: 3. Lck Enzyme Inhibitory Activity Lck inhibitory activity was determined based on activity of inhibiting phosphorylation reaction of a biotinylated peptide (EGPWLEEEEEAYGWMDF) using a human Lck enzyme (manufactured by Carna Biosciences, Inc., cat 08-170). The phosphorylated biotinylated peptide was detected by time-resolved fluorometry using an anti-phosphorylated tyrosine antibody conjugated to europium cryptate, and streptavidin conjugated to XL665, an allophycocyanin derivative. […]
pIC50: −log10 of the molar value.
Give y when the value for pIC50 is at least 7. Give n when it is less.

Request: Entry Cc1cc(Oc2c(F)cccc2F)ncc1-n1ncc(C(=O)c2cc3cc(OC(F)F)c(N4C(=O)NC(C)(C)C4=O)cc3[nH]2)c1N : is its pIC50 no less than 7?
Response: y

Request: Entry Cc1cc(Oc2ccccc2F)cc(F)c1-n1ncc(C(=O)c2cc3cc(OCC(F)F)c(NC4CCN(S(C)(=O)=O)CC4)cc3[nH]2)c1N : is its pIC50 no less than 7?
Response: y

Request: Entry Cc1cc(Oc2c(F)cccc2F)ncc1-n1ncc(C(=O)c2cc3cc(OCC(F)F)c(N4CCCC4=O)cc3[nH]2)c1N : is its pIC50 no less than 7?
Response: y

Request: Entry Cc1cc2cc(C(=O)c3cnn(-c4cnc(Oc5ccccc5F)cc4C)c3N)[nH]c2cc1NS(=O)(=O)c1c(F)cc(F)cc1F : is its pIC50 no less than 7?
Response: n

Request: Entry Cc1cc(Oc2ccccc2F)ccc1-n1ncc(C(=O)c2cc3cc(F)c(NS(=O)(=O)c4cccc(Cl)c4)cc3[nH]2)c1N : is its pIC50 no less than 7?
Response: n

Request: Entry Cc1cc2cc(C(=O)c3cnn(-c4ccc(Oc5cccc(F)c5F)cc4C)c3N)[nH]c2cc1NS(=O)(=O)N1CCOCC1 : is its pIC50 no less than 7?
Response: y

Request: Entry Cc1cc(Oc2ccccc2F)ccc1-n1ncc(C(=O)c2cc3cc(OCC(F)F)c(N4C(=O)NC(C)(C)C4=O)cc3[nH]2)c1N : is its pIC50 no less than 7?
Response: y

Request: Entry Cc1cc(Oc2ccccc2F)ncc1-n1ncc(C(=O)c2cc3cc(F)c(NS(=O)(=O)c4c(F)cc(F)cc4F)cc3[nH]2)c1N : is its pIC50 no less than 7?
Response: n

Request: Entry Cc1cc(Oc2ccccc2F)ccc1-n1ncc(C(=O)c2cc3cc(OCC(F)F)c(N4CCOC4=O)cc3[nH]2)c1N : is its pIC50 no less than 7?
Response: y

Request: Entry Cc1cc(Oc2ccccc2F)ncc1-n1ncc(C(=O)c2cc3cc(OC(F)F)c(C4CCN(S(C)(=O)=O)CC4)cc3[nH]2)c1N : is its pIC50 no less than 7?
Response: y

Request: Entry Cc1cc2cc(C(=O)c3cnn(-c4cnc(Oc5ccccc5F)cc4C)c3N)[nH]c2cc1NS(=O)(=O)CCCF : is its pIC50 no less than 7?
Response: y

Request: Entry Cc1cc(Oc2ccc(F)cc2)ncc1-n1ncc(C(=O)c2cc3cc(F)c(NS(C)(=O)=O)cc3[nH]2)c1N : is its pIC50 no less than 7?
Response: y

Request: Entry Cc1cc(Oc2ccccc2F)ncc1-n1ncc(C(=O)c2cc3cc(F)c(NS(=O)(=O)C4CC4)cc3[nH]2)c1N : is its pIC50 no less than 7?
Response: y

Request: Entry Cc1cc2cc(C(=O)c3cnn(-c4cnc(Oc5ccccc5F)cc4C)c3N)[nH]c2cc1NS(=O)(=O)c1ccc2ccccc2c1 : is its pIC50 no less than 7?
Response: n

Request: Entry Cc1cc2cc(C(=O)c3cnn(-c4ccc(Oc5ccccc5F)cc4C)c3N)[nH]c2cc1N1CCOCC1 : is its pIC50 no less than 7?
Response: y

Request: Entry Cc1cc(Oc2ccccc2F)ccc1-n1ncc(C(=O)c2cc3cc(C4CCN(C(C)C)CC4)c(F)cc3[nH]2)c1N : is its pIC50 no less than 7?
Response: y

Request: Entry COc1cc2cc(C(=O)c3cnn(-c4ccc(Oc5ccccc5F)cc4C)c3N)[nH]c2cc1NS(C)(=O)=O : is its pIC50 no less than 7?
Response: y

The values you see were collected from patent US10479780B2.
